# System: T1, cyno TfR extracellular domain (analogous construct to human TfR ecd) (cynomolgus monkey, UniProt Q5RDH6 87-760 (Pongo abelii entry))
# T1 construct: also called cynoTfR ecd
# T1 chain: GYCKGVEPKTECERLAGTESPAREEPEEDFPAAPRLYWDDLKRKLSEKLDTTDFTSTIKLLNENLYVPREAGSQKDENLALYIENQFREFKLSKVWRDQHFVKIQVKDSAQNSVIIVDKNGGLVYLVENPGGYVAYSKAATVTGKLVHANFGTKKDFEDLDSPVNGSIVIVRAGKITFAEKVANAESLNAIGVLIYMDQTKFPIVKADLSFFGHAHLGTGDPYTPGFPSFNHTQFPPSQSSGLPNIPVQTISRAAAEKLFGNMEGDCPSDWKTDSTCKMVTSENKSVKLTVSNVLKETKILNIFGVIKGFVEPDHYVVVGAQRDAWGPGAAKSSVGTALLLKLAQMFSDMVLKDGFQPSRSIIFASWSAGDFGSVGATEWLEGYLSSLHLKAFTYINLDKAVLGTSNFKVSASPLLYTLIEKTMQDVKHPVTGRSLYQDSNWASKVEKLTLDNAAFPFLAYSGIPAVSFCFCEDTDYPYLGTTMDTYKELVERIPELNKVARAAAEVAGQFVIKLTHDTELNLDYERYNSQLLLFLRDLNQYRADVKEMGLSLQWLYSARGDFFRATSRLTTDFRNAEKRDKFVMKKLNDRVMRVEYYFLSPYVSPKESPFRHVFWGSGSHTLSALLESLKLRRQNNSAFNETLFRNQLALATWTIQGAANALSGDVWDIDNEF
# Experimental protocol: ELISA, IgG
Readout label: EC50 (µg/mL)
The answer is to be given in µg/mL; state only the numeric part.

Solved cases (3 shown):
{"Binder": "T97A (antibody, V domains shown, also called 15G11.v5 T97A (CDR-L3) IgG) VH: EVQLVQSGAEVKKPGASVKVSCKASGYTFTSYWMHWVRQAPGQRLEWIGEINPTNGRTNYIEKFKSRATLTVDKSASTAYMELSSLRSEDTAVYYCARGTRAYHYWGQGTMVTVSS VL: DIQMTQSPSSLSASVGDRVTITCRASDNLYSNLAWYQQKPGKSPKLLVYDATNLADGVPSRFSGSGSGTDYTLTISSLQPEDFATYYCQHFWGTPLAFGQGTKVEIK", "Reading unit": "µg/mL", "Measured value": 0.0157}
{"Binder": "H90A (antibody, V domains shown, also called 15G11.v5 H90A (CDR-L3) IgG) VH: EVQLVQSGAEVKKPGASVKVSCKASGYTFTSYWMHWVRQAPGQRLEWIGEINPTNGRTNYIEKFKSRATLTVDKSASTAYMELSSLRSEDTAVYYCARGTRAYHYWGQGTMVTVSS VL: DIQMTQSPSSLSASVGDRVTITCRASDNLYSNLAWYQQKPGKSPKLLVYDATNLADGVPSRFSGSGSGTDYTLTISSLQPEDFATYYCQAFWGTPLTFGQGTKVEIK", "Reading unit": "µg/mL", "Measured value": 0.024}
{"Binder": "T94A (antibody, V domains shown, also called 15G11.v5 T94A (CDR-L3) IgG) VH: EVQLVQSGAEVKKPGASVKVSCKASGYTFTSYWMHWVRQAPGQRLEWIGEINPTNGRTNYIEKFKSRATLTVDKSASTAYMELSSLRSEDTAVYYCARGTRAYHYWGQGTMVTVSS VL: DIQMTQSPSSLSASVGDRVTITCRASDNLYSNLAWYQQKPGKSPKLLVYDATNLADGVPSRFSGSGSGTDYTLTISSLQPEDFATYYCQHFWGAPLTFGQGTKVEIK", "Reading unit": "µg/mL", "Measured value": 0.0293}

Documented EC50 of H101A (antibody, V domains shown, also called 15G11.v5 H101A (CDR-H3) IgG; copies: 2 + 2) VH: EVQLVQSGAEVKKPGASVKVSCKASGYTFTSYWMHWVRQAPGQRLEWIGEINPTNGRTNYIEKFKSRATLTVDKSASTAYMELSSLRSEDTAVYYCARGTRAYAYWGQGTMVTVSS VL: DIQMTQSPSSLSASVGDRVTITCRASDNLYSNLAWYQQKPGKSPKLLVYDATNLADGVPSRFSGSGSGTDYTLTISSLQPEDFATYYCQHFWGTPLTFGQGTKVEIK : 0.0216

// field: EC50; key: G93A (antibody, V domains shown, also called 15G11.v5 G93A (CDR-L3) IgG) VH: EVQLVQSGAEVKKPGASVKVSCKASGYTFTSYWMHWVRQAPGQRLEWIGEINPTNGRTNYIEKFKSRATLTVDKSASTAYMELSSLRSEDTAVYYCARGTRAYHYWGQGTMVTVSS VL: DIQMTQSPSSLSASVGDRVTITCRASDNLYSNLAWYQQKPGKSPKLLVYDATNLADGVPSRFSGSGSGTDYTLTISSLQPEDFATYYCQHFWATPLTFGQGTKVEIK ; value = 0.0508
